- Measurement Target: bovine serum albumin (BSA) glycation by methylglyoxal (Bos taurus)
- Construct: purchased Merck (Dorset, UK) and Oxoid (Hampshire, UK)
- Sequence (P02769 25-607): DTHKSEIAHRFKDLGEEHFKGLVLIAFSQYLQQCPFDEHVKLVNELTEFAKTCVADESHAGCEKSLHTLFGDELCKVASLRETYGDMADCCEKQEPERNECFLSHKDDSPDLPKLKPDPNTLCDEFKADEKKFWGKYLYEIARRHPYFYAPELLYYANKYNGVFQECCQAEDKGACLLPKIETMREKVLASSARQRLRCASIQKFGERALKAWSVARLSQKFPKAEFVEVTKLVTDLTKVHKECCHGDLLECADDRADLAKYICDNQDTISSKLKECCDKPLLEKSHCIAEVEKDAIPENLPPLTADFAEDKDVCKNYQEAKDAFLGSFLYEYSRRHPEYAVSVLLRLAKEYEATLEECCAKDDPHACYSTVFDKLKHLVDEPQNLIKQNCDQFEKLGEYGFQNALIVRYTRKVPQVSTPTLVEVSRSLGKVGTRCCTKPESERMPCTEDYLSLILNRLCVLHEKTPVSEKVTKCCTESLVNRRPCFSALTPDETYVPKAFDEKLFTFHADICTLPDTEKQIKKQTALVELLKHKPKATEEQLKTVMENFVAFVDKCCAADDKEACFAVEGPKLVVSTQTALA
- Protocol Details: AGEs assay, oxidative (BSA-MGO assay)
- Assay type: biochemical
Quantity Measured: IC50 (µM)
Answers are plain numbers, in µM.

Hello, please tell me recorded IC50 for this one: `C[C@@H]1O[C@@H](Oc2c(-c3ccc(O)c(O)c3)oc3cc(O)cc(O)c3c2=O)[C@H](O)[C@H](O)[C@H]1O`
758

---

- Measurement Target: BSA cross-link formation (BSA-MGO) (Bos taurus, UniProt P02769)
- Construct: purchased Merck (Dorset, UK) and Oxoid (Hampshire, UK)
- Sequence (P02769 25-607): as above
- Protocol Details: Protein cross-linking assay by SDS-PAGE, BSA-MGO
- Type: biochemical, bovine
- Condition Description: SDS-PAGE integrated density
I'd be grateful if you could share measured Inhibition of protein cross-link formation for these entries.
Write the quantity with the unit trailing the number.

INSERT INTO assay_data (compound, meas_value) VALUES
  ('C/C1=C\CC/C(C)=C/CC(C)(C)/C=C/C1', '40%'),
  ('S=C=NCCc1ccccc1 [2-Phenylethylisothiocyanate, 2-phenylethylisothiocyanate]', '48%'),
  ('C=C1CC[C@H]2O[C@]2(C)CC[C@@H]2[C@@H]1CC2(C)C [Caryophyllene oxide, caryophyllene-oxide]', '35%');

Hello, please tell me recorded Inhibition of protein cross-link formation for this one: `O=C1C=CC(=O)c2c(O)cccc21`
39%

---

- System: α-glucosidase
- Protocol Details: α-Glucosidase inhibition assay
- Type: biochemical, Saccharomyces cerevisiae
Quantity Measured: α-Glucosidase (IC50)

INSERT INTO results (compound, quantity_measured, meas_value) VALUES
  ('C/C1=C\CC/C(C)=C/CC(C)(C)/C=C/C1', 'α-Glucosidase (IC50)', 'Inactive'),
  ('C=C1CC/C=C(\C)CC[C@@H]2[C@@H]1CC2(C)C [Caryophyllene, trans-caryophyllene]', 'α-Glucosidase (IC50)', 'Inactive'),
  ('C=C1CC[C@H]2O[C@]2(C)CC[C@@H]2[C@@H]1CC2(C)C [Caryophyllene oxide, caryophyllene-oxide]', 'α-Glucosidase (IC50)', 'Inactive'),
  ('C=CCc1ccc(O)c(OC)c1', 'α-Glucosidase (IC50)', 'Inactive');
